Origin of the recorded values: ChEMBL document CHEMBL1135601

- assay: Biodistribution after day 1 in mouse tumor
- Assay type: ADME, organism-based
recorded_endpoint: concentration at 1 day (ng/g)

Reference set (4 entries):
CCc1c(CC)c2cc3nc(cc4[nH]c(c(C)c4CC)c4[nH]c(cc5nc(cc1[nH]2)C(CCC(=O)NC1C(O)OC(CO)C(O)C1O)=C5C)c(CC)c4C)C(C)=C3CCC(=O)NC1C(O)OC(CO)C(O)C1O (stereo unspecified) = 32000
C=CC1=C(C)c2cc3nc(cc4[nH]c(cc5[nH]c(cc1n2)c(C)c5CCC(=O)NC1C(O)OC(CO)C(O)C1O)c(CCC(=O)NC1C(O)OC(CO)C(O)C1O)c4C)C(C=C)=C3C (stereo unspecified) = 34000
CCC1=C(CC)c2cc3[nH]c(cc4[nH]c(c(C)c4CC)c4[nH]c(cc5nc(cc1n2)C(CCC(=O)NCCOCCOCCN)=C5C)c(CC)c4C)c(C)c3CCC(=O)NCCOCCOCCN = 4200
CCc1c(CC)c2cc3nc(cc4[nH]c(c(C)c4CC)c4[nH]c(cc5nc(cc1[nH]2)C(CCC(=O)NCCOCCOCCO)=C5C)c(CC)c4C)C(C)=C3CCC(=O)NCCOCCOCCO = 22000

A. CCc1c(CC)c2cc3nc(cc4[nH]c(c(C)c4CC)c4[nH]c(cc5nc(cc1[nH]2)C(CCC(=O)N(CCO)CCO)=C5C)c(CC)c4C)C(C)=C3CCC(=O)N(CCO)CCO
B. CCc1c(CC)c2cc3nc(cc4[nH]c(c(C)c4CC)c4[nH]c(cc5nc(cc1[nH]2)C(CCC(=O)NCCN(CCN)CCN)=C5C)c(CC)c4C)C(C)=C3CCC(=O)NCCN(CCN)CCN
Prompt line: Sorting by concentration at 1 day in descending order, would A or B appear first? Respond with the label that goes with your answer.
Response line: A
(A: 109000 ng/g, B: 58000 ng/g)

----------
- assay: Biodistribution after day 9 in mouse liver
- Format: ADME, organism-based
recorded_endpoint: concentration at 9 day (ng/g)

P. C=CC1=C(C)c2cc3nc(cc4[nH]c(cc5[nH]c(cc1n2)c(C)c5CCC(=O)NC1C(O)OC(CO)C(O)C1O)c(CCC(=O)NC1C(O)OC(CO)C(O)C1O)c4C)C(C=C)=C3C (configuration not stated)
Q. CCc1c(CC)c2cc3nc(cc4[nH]c(c(C)c4CC)c4[nH]c(cc5nc(cc1[nH]2)C(CCC(=O)NC1C(O)OC(CO)C(O)C1O)=C5C)c(CC)c4C)C(C)=C3CCC(=O)NC1C(O)OC(CO)C(O)C1O (configuration not stated)
Prompt line: Sorting by concentration at 9 day in descending order, would P or Q appear first? Respond with the label that goes with your answer.
Response line: P
(P: 960 ng/g, Q: 470 ng/g)

----------
- assay: Biodistribution after day 1 in mouse lung
- Type: ADME, organism-based
recorded_endpoint: concentration at 1 day (ng/g)

a. CCC1=C(CC)c2cc3[nH]c(cc4[nH]c(c(C)c4CC)c4[nH]c(cc5nc(cc1n2)C(CCC(=O)NCCOCCOCCN)=C5C)c(CC)c4C)c(C)c3CCC(=O)NCCOCCOCCN
b. CCc1c(CC)c2cc3nc(cc4[nH]c(c(C)c4CC)c4[nH]c(cc5nc(cc1[nH]2)C(CCC(=O)NC1C(O)OC(CO)C(O)C1O)=C5C)c(CC)c4C)C(C)=C3CCC(=O)NC1C(O)OC(CO)C(O)C1O (stereo not drawn)
Prompt line: Looking only at measured concentration at 1 day, which entry is lower, a or b ? Respond with the label that goes with your answer.
Response line: a
